- assay system: UniProt P51679
- assay details: Inhibition of [125I]MDC binding to recombinant human C-C chemokine receptor type 4 (CCR4) expressed in murine pre-B cells
- Assay type: cell-based
Here, each record is paired with measured IC50 data.
// return numeric value only (unit: nM, not printed)

Examples from the recorded data:
smiles string: Cc1c(Cl)cccc1CNC(=O)C[C@H]1S[C@H](c2ccc(Cl)cc2Cl)N(CC(=O)NCCCN2CCOCC2)C1=O
unit: nM
IC50: 400
//
smiles string: C[C@@H](NC(=O)C[C@H]1S[C@H](c2ccc(Cl)cc2Cl)N(CC(=O)NCCCN2CCCCC2)C1=O)c1cccc2ccccc12
unit: nM
IC50: 110
//
smiles string: COc1ccc([C@H]2S[C@H](CC(=O)NCc3cccc4ccccc34)C(=O)N2CC(=O)NCCCN2CCOCC2)c(OC)c1
unit: nM
IC50: 33000

Okay, next one:
Exercise: I'd like to know its IC50. The compound in question is `O=C(C[C@H]1S[C@H](c2ccc(F)cc2)N(CC(=O)NCCCN2CCOCC2)C1=O)NCc1cccc2ccccc12`
Solution: 4000

---

# IC50 values compiled below
- assay system: UniProt P51679
- Sequence (P51679 whole entry): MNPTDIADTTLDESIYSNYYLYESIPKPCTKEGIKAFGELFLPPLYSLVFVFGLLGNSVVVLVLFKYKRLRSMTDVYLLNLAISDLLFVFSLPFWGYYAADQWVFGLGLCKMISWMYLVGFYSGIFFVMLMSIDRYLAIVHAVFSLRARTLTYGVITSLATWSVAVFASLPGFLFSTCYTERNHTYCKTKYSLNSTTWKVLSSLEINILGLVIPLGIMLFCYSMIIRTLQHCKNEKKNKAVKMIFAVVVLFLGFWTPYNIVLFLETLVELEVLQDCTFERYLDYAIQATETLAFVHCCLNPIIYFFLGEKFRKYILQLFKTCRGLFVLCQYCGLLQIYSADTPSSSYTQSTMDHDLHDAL
- assay details: Inhibition of [125I]MDC binding to recombinant human C-C chemokine receptor type 4 (CCR4) expressed in murine pre-B cells
- Format: cell-based
Field format: number, assumed nM, no unit text.

smiles string: O=C(C[C@H]1S[C@H](c2ccc(Cl)cc2Cl)N(CC(=O)NCCCN2CCOCC2)C1=O)NCc1cccc(C(F)(F)F)c1F
IC50 / nM: 2500
//
smiles string: O=C(C[C@H]1S[C@H](c2ccc(Cl)cc2Cl)N(CC(=O)N2CCC(N3CCCCC3)CC2)C1=O)NCc1cccc2ccccc12
IC50 / nM: 330
//
smiles string: O=C(C[C@H]1S[C@H](c2ccc(Cl)cc2Cl)N(CC(=O)NCCCN2CCOCC2)C1=O)NCc1ccco1
IC50 / nM: 7000

Exercise: IC50 for `O=C(C[C@H]1S[C@H](c2ccc(Cl)cc2Cl)N(CC(=O)NCCCN2CCOCC2)C1=O)NCc1cccc(Cl)c1Cl` ?
Solution: 790

Exercise: What value of IC50 has been recorded for this entry: `O=C(CN1C(=O)[C@@H](CC(=O)NC2CCCCC2)S[C@@H]1c1ccc(Cl)cc1Cl)NCCCN1CCOCC1`
Solution: 7000

Exercise: Which IC50 value belongs to `Cc1cccc(CNC(=O)C[C@H]2S[C@H](c3ccc(Cl)cc3Cl)N(CC(=O)NCCCN3CCOCC3)C2=O)c1C` ?
Solution: 440

Exercise: Could you tell me which IC50 is on file for `O=C(C[C@H]1S[C@H](c2ccc(Cl)cc2Cl)N(CC(=O)NCCCN2CCOCC2)C1=O)NCc1ccc(Cl)c(C(F)(F)F)c1` ?
Solution: 6000

---

- assay system: UniProt P51679
- assay details: Inhibition of [125I]MDC binding to recombinant human C-C chemokine receptor type 4 (CCR4) expressed in murine pre-B cells
- Type: cell-based
property name: pIC50
Worth noting: pIC50 values are minus log10 of concentrations stated in mol/L.

Example cases with answers are listed next.
smiles string: CC(C)(C)CCNC(=O)C[C@H]1S[C@H](c2ccc(Cl)cc2Cl)N(CC(=O)NCCCN2CCOCC2)C1=O
assay system: UniProt P51679
pIC50: 4.68
--
smiles string: O=C(C[C@H]1S[C@H](c2ccccc2Cl)N(CC(=O)NCCCN2CCOCC2)C1=O)NCc1cccc2ccccc12
assay system: UniProt P51679
pIC50: 4.96
--
smiles string: O=C(C[C@H]1S[C@H](c2ccc(Cl)cc2Cl)N(CC(=O)NCCCN2CCCC2)C1=O)NCc1cccc2ccccc12
assay system: UniProt P51679
pIC50: 6.51
--
smiles string: O=C(C[C@H]1S[C@H](c2ccc(Cl)cc2Cl)N(CC(=O)NCCCN2CCOCC2)C1=O)NCc1cccc2ccccc12
assay system: UniProt P51679
pIC50: 6.16
--
smiles string: O=C(CN1C(=O)[C@@H](CC(=O)Nc2nccs2)S[C@@H]1c1ccc(Cl)cc1Cl)NCCCN1CCOCC1
assay system: UniProt P51679
pIC50: 4.96

Exercise: # get_value(readout='pIC50', item= `O=C(C[C@H]1S[C@H](CCc2ccccc2)N(CC(=O)NCCCN2CCOCC2)C1=O)NCc1cccc2ccccc12` )
Solution: 4.00

Exercise: Request the reported pIC50 associated with `O=C(C[C@H]1S[C@H](c2ccc(Cl)cc2Cl)N(CC(=O)NCCCN2CCOCC2)C1=O)NCc1ccc2[nH]ccc2c1`
Solution: 6.00

---

- assay system: C-C chemokine receptor type 4 (Homo sapiens, UniProt P51679)
- assay details: Inhibition of [125I]MDC binding to recombinant human C-C chemokine receptor type 4 (CCR4) expressed in murine pre-B cells
- Type: cell-based
property name: pIC50
A value of pIC50 is the negative decimal logarithm of a concentration given in moles per litre.

Guide cases for pIC50, answers given:
compound: O=C(C[C@H]1S[C@H](C2CCCCC2)N(CC(=O)NCCCN2CCOCC2)C1=O)NCc1cccc2ccccc12
quantitative readout: 4.00
//
compound: Cc1ccccc1CNC(=O)C[C@H]1S[C@H](c2ccc(Cl)cc2Cl)N(CC(=O)NCCCN2CCOCC2)C1=O
quantitative readout: 4.96
//
compound: CC(C)CCNC(=O)C[C@H]1S[C@H](c2ccc(Cl)cc2Cl)N(CC(=O)NCCCN2CCOCC2)C1=O
quantitative readout: 4.72
//
compound: O=C(C[C@H]1S[C@H](c2ccc(Cl)cc2)N(CC(=O)NCCCN2CCOCC2)C1=O)NCc1cccc2ccccc12
quantitative readout: 6.08
//
compound: Cc1cccc(CNC(=O)C[C@H]2S[C@H](c3ccc(Cl)cc3Cl)N(CC(=O)NCCCN3CCOCC3)C2=O)c1
quantitative readout: 5.64

Exercise: For the compound shown here, `O=C(C[C@H]1S[C@H](c2ccc(Cl)cc2Cl)N(Cc2cccc(CN3CCOCC3)c2)C1=O)NCc1cccc2ccccc12` , give the reported pIC50.
Solution: 4.00

Exercise: Field request: pIC50 | item: `O=C(C[C@H]1S[C@H](c2ccc(Cl)cc2Cl)N(CC(=O)NCCCN2CCOCC2)C1=O)NCc1cccc(Cl)c1`
Solution: 6.03

Exercise: Returns the measured pIC50 for the input compound. Input: `NCCNC(=O)CCN1C(=O)[C@@H](CC(=O)NCc2cccc3ccccc23)S[C@@H]1c1ccc(Cl)cc1Cl`
Solution: 5.05

Exercise: So what does the record say about pIC50 for `CN(C)CCCN1C(=O)[C@@H](CC(=O)NCc2cccc3ccccc23)S[C@@H]1c1ccc(Cl)cc1Cl` ?
Solution: 5.25

Exercise: Please report the recorded pIC50 for `O=C(C[C@H]1S[C@H](c2ccc(Cl)cc2Cl)N(CC(=O)NCCCN2CCOCC2)C1=O)NCc1csc2ccccc12` .
Solution: 6.47

Exercise: Return reported pIC50; argument: `O=C(C[C@H]1S[C@H](c2ccc(Cl)cc2Cl)N(CC(=O)N2CCNCC2)C1=O)NCc1cccc2ccccc12`
Solution: 5.85

---

- assay system: C-C chemokine receptor type 4 (Homo sapiens)
- assay details: Inhibition of [125I]MDC binding to recombinant human C-C chemokine receptor type 4 (CCR4) expressed in murine pre-B cells
- Assay type: cell-based
pIC50: −log10 of the molar value.
Label label 1 when pIC50 is at or above 5; otherwise label label 0.

// known answers, use as guide
smiles string: O=C(C[C@H]1S[C@H](c2ccc(F)cc2Cl)N(CC(=O)NCCCN2CCOCC2)C1=O)NCc1cccc2ccccc12
class: label 1
//
smiles string: COc1ccc(CNC(=O)C[C@H]2S[C@H](c3ccc(Cl)cc3Cl)N(CC(=O)NCCCN3CCOCC3)C2=O)c(OC)c1
class: label 0
//
smiles string: O=C(C[C@H]1S[C@H](c2cccc(Cl)c2Cl)N(CC(=O)NCCCN2CCOCC2)C1=O)NCc1cccc2ccccc12
class: label 0
//
smiles string: O=C(CN1C(=O)[C@@H](CC(=O)NC(c2ccccc2)c2ccccc2)S[C@@H]1c1ccc(Cl)cc1Cl)NCCCN1CCOCC1
class: label 1

Exercise: Entry `O=C(C[C@H]1S[C@H](c2ccc(Cl)cc2Cl)N(CCC(=O)N2CCNCC2)C1=O)NCc1cccc2ccccc12` : is its pIC50 no less than 5?
Solution: label 1

Exercise: hey, is pIC50 for this one >= 5? `O=C(C[C@H]1S[C@H](c2ccc(Cl)cc2Cl)N(CC(=O)NCCCN2CCOCC2)C1=O)NCc1cc(Cl)ccc1Cl`
Solution: label 1

Exercise: Does the compound `CN1CCN(C(=O)CN2C(=O)[C@@H](CC(=O)NCc3cccc4ccccc34)S[C@@H]2c2ccc(Cl)cc2Cl)CC1` have recorded pIC50 that is 5 or more?
Solution: label 0

Exercise: Hello, I need to know if `CN1CCN(CCCNC(=O)CN2C(=O)[C@@H](CC(=O)NCc3cccc4ccccc34)S[C@@H]2c2ccc(Cl)cc2Cl)CC1` has measured pIC50 not below 5. Thanks!
Solution: label 1

Exercise: Given the entry `O=C(C[C@H]1S[C@H](c2ccncc2)N(CC(=O)NCCCN2CCOCC2)C1=O)NCc1cccc2ccccc12` , answer whether its pIC50 meets or surpasses 5.
Solution: label 0

Exercise: Hello, I need to know if `O=C(C[C@H]1S[C@H](c2ccc(Cl)cc2Cl)N(CC(=O)NCCCN2CCOCC2)C1=O)NCc1cc(Cl)cc(Cl)c1` has measured pIC50 not below 5. Thanks!
Solution: label 1

Exercise: Check the entry `O=C(C[C@H]1S[C@H](c2ccc(Cl)cc2Cl)N(CC(=O)NCCCCCN2CCOCC2)C1=O)NCc1cccc2ccccc12` : does pIC50 equal or exceed 5?
Solution: label 1

Exercise: I'd appreciate it if you could say whether `O=C(C[C@H]1S[C@H](c2ccoc2)N(CC(=O)NCCCN2CCOCC2)C1=O)NCc1cccc2ccccc12` has pIC50 at least equal to 5.
Solution: label 0
